Molecular target: Substance-P receptor (Homo sapiens)
Sequence (P25103 whole entry): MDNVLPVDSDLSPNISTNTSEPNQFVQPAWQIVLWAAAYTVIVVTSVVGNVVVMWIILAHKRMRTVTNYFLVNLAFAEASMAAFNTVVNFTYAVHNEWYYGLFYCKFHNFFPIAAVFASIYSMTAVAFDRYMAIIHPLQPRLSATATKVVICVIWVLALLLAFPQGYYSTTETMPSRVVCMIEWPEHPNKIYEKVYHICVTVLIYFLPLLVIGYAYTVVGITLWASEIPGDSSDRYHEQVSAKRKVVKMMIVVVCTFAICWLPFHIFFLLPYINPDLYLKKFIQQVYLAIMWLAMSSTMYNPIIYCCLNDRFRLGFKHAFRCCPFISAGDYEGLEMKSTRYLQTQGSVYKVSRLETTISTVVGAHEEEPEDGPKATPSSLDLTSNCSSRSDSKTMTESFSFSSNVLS
Assay: Displacement of [125I]substance P from human NK1 receptor expressed in CHO cells
Type: cell-based
pIC50: −log10 of the molar value.
Quantity measured: pIC50

These recorded examples may help you get a feel for the data.
| Compound | Test system | Assay result |
| --- | --- | --- |
| C[C@@H](O[C@H]1CN2C(=O)[C@H]3C[C@@](C)(O)C[C@H]3[C@H]2[C@@H]1c1ccc(F)cc1)c1cc(C(F)(F)F)cc(C(F)(F)F)c1 | Substance-P receptor (Homo sapiens) | 10.21 |
| C[C@@H](O[C@H]1CN2C(=O)[C@H]3C[C@](C)(O)C[C@H]3[C@H]2[C@@H]1c1ccc(F)cc1)c1cc(C(F)(F)F)cc(C(F)(F)F)c1 | Substance-P receptor (Homo sapiens) | 10.18 |

I = C[C@@H](O[C@H]1CN2C(=O)[C@H]3C[C@@H](N)C[C@H]3[C@H]2[C@@H]1c1ccc(F)cc1)c1cc(C(F)(F)F)cc(C(F)(F)F)c1
II = C[C@@H](O[C@H]1CN2C(=O)[C@@H]3C[C@H](NCc4ccccc4)C[C@@H]3[C@H]2[C@@H]1c1ccc(F)cc1)c1cc(C(F)(F)F)cc(C(F)(F)F)c1
III = CC(O[C@H]1CN2C(=O)[C@@H]3CC(N)C[C@@H]3[C@H]2[C@@H]1c1ccc(F)cc1)c1cc(C(F)(F)F)cc(C(F)(F)F)c1 (single isomer, unassigned)
Give the ascending ranking of the items by reported pIC50. Provide the ranking by listing each label in its place in the requested order.
II, III, I
